Biological target: EPHA2 (human)
Test: radiometric filter-binding kinase assay
Conditions: compound 10.0 µM
Let's look at some compounds and their measured residual activity.
Give just the number in %; leave the unit off.

Reported residual activity ( Oc1ccc(/C=C/c2cc(O)cc(O)c2)cc1 ) = 81

Reported residual activity ( NC(=O)c1ccc(-c2ccc(Oc3cncc4sc(-c5nn[nH]n5)cc34)cc2)cc1 ) = 89

Reported residual activity ( N#Cc1c(C2CCNCC2)cc(-c2c(O)cccc2OCC2CC2)nc1N ) = 78

Reported residual activity ( CC(C)(C#N)c1ccc(N2C(=O)OCc3cnc4ccc(-c5cnc6ccccc6c5)cc4c32)cc1 ) = 81

Reported residual activity ( Cc1nc(-c2ccc(OCC(C)C)c(C#N)c2)sc1C(=O)O ) = 89

Reported residual activity ( CCc1cncnc1N1CCN(Cc2nc3cc(C(F)(F)F)ccc3[nH]2)CC1 ) = 89

Reported residual activity ( CCCCCc1ccc(/C=C/[C@H](O)[C@@H](CO)NC)cc1 ) = 91

Reported residual activity ( N#Cc1c(O)c2c(-c3ccc(-c4ccccc4O)cc3)csc2[nH]c1=O ) = 82

Reported residual activity ( NC(=O)c1cc(-c2ccnc(NC3CCCCC3)c2)nc(N2CCNCC2)c1 ) = 82

Reported residual activity ( CCOC(=O)c1ccc(N2NC(=O)/C(=C/c3ccc([N+](=O)[O-])o3)C2=O)cc1 ) = 90
